Below, each entry is listed alongside its reported Ratio.
Species on record: Mus musculus
TEST: Dose ratio in the presence and absence of the peripheral opioid antagonist in N-methyl-nalorphine in AA writhing mice
Assay type: functional

Before answering, review these 2 worked examples.
>  <MOL_SMILES>
CC(=O)O.CCN(Cc1ccccc1[N+](=O)[O-])C(=O)CNC(=O)[C@@H](CCCN=C(N)N)NC(=O)[C@H](Cc1ccc(O)cc1)N=C(N)N

>  <OBSERVABLE>
Ratio

>  <VALUE_REPORTED>
11

$$$$
>  <MOL_SMILES>
CC(=O)O.CCN(Cc1ccc([N+](=O)[O-])cc1)C(=O)CNC(=O)[C@@H](CCCN=C(N)N)NC(=O)[C@H](Cc1ccc(O)cc1)N=C(N)N

>  <OBSERVABLE>
Ratio

>  <VALUE_REPORTED>
4.6

$$$$

Now look at this one.
Any idea what its Ratio is? The compound is `CC(=O)O.CCN(C(=O)CNC(=O)[C@@H](CCCN=C(N)N)NC(=O)[C@@H](N)Cc1ccc(O)cc1)[C@@H](Cc1ccc([N+](=O)[O-])cc1)C(N)=O`
3.4
